- TARGET UNDER TEST: p55 fyn (Homo sapiens, UniProt P06241)
- Sequence (P06241 whole entry): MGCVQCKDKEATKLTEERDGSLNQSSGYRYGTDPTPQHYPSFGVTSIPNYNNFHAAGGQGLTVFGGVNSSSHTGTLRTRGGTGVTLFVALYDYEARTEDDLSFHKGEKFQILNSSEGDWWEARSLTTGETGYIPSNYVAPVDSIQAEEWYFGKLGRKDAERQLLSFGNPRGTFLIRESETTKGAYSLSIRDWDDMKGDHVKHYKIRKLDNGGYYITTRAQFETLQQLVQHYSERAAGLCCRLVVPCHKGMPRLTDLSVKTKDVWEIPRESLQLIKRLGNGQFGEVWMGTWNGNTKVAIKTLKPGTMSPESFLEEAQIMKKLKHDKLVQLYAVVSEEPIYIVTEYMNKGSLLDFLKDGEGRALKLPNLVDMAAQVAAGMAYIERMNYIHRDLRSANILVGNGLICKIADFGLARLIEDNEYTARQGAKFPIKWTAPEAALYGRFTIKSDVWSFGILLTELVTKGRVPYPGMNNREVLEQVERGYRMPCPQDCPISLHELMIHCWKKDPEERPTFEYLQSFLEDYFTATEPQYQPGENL
- EXPERIMENT SUMMARY: Inhibition of p55 fyn
- Type: biochemical
- CONDITION SUMMARY: compound at 10 micromolar
Entries and their measured inhibition at 10 µM follow.
Use % as the unit, but write only the number.

{"SUBSTANCE SMILES": "CCCOc1ccc(CNC(=O)c2cc3cc(F)ccc3[nH]2)cc1O", "OBSERVED MEASUREMENT": 11}
{"SUBSTANCE SMILES": "O=C(NCc1ccc(F)cc1Cl)c1[nH]c2ccc(F)cc2c1-c1ccccc1", "OBSERVED MEASUREMENT": 12}
{"SUBSTANCE SMILES": "Cc1cccc(Cl)c1CNC(=O)c1cc2cc(F)ccc2[nH]1", "OBSERVED MEASUREMENT": 14}
{"SUBSTANCE SMILES": "O=C(NCC1(O)CCCCC1)c1[nH]c2ccc(F)cc2c1-c1ccccc1", "OBSERVED MEASUREMENT": 13}
{"SUBSTANCE SMILES": "O=C(NCc1ccc(Cl)cc1)c1cc2cc(F)ccc2[nH]1", "OBSERVED MEASUREMENT": 15}
{"SUBSTANCE SMILES": "O=C(NCc1cccc(C(F)(F)F)c1)c1cc2cc(F)ccc2[nH]1", "OBSERVED MEASUREMENT": 18}
{"SUBSTANCE SMILES": "COc1ccc(NC(=O)c2[nH]c3ccc(F)cc3c2-c2ccccc2)cc1CO", "OBSERVED MEASUREMENT": 11}
{"SUBSTANCE SMILES": "COc1cc(CNC(=O)c2cc3cc(F)ccc3[nH]2)ccc1OCc1ccccc1", "OBSERVED MEASUREMENT": 11}

Next compound, please.
## Task Which inhibition at 10 µM reading was recorded for the compound O=C(NCCc1c[nH]c2ccccc12)c1cc2cc(F)ccc2[nH]1 ?
## Result 10

###

- TARGET UNDER TEST: Epidermal Growth Factor Receptor Tyrosine Kinase (EGFRTK) (Homo sapiens, UniProt P00533)
- Sequence (P00533 25-1210): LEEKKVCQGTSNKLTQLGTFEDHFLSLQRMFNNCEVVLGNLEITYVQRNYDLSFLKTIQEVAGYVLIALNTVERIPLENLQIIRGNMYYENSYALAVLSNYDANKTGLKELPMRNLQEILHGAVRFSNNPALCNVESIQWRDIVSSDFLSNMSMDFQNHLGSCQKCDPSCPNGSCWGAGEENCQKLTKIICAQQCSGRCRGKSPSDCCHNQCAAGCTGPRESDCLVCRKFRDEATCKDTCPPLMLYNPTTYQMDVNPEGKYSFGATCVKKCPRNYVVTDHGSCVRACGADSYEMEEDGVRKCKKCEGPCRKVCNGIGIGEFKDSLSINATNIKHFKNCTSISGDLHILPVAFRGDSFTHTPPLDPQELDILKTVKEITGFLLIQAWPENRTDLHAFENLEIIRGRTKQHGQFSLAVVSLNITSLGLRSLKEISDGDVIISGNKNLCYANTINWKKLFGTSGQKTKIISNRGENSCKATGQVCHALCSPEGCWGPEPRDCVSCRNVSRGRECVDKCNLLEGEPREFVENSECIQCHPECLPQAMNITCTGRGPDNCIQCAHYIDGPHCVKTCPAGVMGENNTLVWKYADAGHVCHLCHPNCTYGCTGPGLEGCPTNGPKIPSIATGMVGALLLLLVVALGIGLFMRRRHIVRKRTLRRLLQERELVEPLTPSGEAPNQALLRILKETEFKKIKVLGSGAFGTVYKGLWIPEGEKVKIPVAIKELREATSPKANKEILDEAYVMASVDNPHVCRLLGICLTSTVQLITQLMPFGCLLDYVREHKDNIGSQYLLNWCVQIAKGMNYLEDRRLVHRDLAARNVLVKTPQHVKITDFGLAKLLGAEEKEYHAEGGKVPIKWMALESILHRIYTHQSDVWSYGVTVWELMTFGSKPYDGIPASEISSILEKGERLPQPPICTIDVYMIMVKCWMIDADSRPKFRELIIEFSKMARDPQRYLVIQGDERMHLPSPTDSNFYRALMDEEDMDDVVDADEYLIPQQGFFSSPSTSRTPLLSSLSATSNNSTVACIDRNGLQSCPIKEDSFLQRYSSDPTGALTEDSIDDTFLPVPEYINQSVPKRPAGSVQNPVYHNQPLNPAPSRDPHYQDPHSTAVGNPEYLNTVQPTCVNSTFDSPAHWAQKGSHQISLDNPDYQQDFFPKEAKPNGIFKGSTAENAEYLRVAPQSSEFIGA
- EXPERIMENT SUMMARY: Inhibition of EGFRTK
- Format: biochemical
- CONDITION SUMMARY: compound at 10 micromolar
MEASUREMENT LABEL: inhibition at 10 µM (%)
Use % as the unit, but write only the number.

Consider the following illustrative entries.
{"COMPOUND": "O=C(NCc1ccc(Br)cc1)c1cc2cc(F)ccc2[nH]1 [Compound 1kkkk]", "TARGET UNDER TEST": "Epidermal Growth Factor Receptor Tyrosine Kinase (EGFRTK) (Homo sapiens, UniProt P00533)", "inhibition at 10 µM / %": 30}
{"COMPOUND": "O=C(NCc1ccccc1)c1cc2cc(F)ccc2[nH]1 [Compound 1bb]", "TARGET UNDER TEST": "Epidermal Growth Factor Receptor Tyrosine Kinase (EGFRTK) (Homo sapiens, UniProt P00533)", "inhibition at 10 µM / %": 19}

## Task Recorded inhibition at 10 µM for O=C(NCc1cc(F)cc(F)c1)c1[nH]c2ccc(F)cc2c1-c1ccccc1 [Compound 2y] with Epidermal Growth Factor Receptor Tyrosine Kinase (EGFRTK) (Homo sapiens, UniProt P00533), please?
## Result 20
